target or test system: T1, recombinant human PD-L1 His protein (human, UniProt Q9NZQ7 19-239)
T1 construct: not shown: His tag
T1 sequence (Q9NZQ7 19-239 limits assumed): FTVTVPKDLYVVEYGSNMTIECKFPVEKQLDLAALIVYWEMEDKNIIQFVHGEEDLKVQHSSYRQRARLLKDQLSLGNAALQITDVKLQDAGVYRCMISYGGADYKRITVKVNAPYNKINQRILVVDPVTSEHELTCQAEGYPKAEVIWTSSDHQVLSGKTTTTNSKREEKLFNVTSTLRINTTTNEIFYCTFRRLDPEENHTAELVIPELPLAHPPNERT
protocol: SPR Biacore T200, PD-L1 His on chip, sdAb analyte
measurement label: koff (s⁻¹)

[
  {
    "binder": "AS11947 sdAb (VHH, His6-tagged llama sdAb) VHH: DVQLVESGGGLVQAGDSLRLTCSASGRTFISYAVGWFRQAPGTEREFVAGIRWNGISTDYTDSVKGRFTISRDNAKNTVYLQMNSLKPEDTAIYYCAAHRTIATIPNKYEYDHWGQGTQVTVSS",
    "reported measurement": 0.00118
  },
  {
    "binder": "AS06775 sdAb (VHH, His6-tagged llama sdAb) VHH: QVQLVESGGGLVQAGDSLRLSCAASGRTFLTLAVGWFRQAPGTEREFVAGIRWSGSGTDYADSVKGRFTISRDNAKNTVYLQMNSLKPEDTAVYYCAAHTTIATIPEKYEYEYWGRGTQVTVSS",
    "reported measurement": 0.000247
  },
  {
    "binder": "AS06750 sdAb (VHH, His6-tagged llama sdAb) VHH: AVQLVESGGGLVQAGDSLRLSCTASGRTFLTYAVGWFRQAPGTEREFVAGIRWSGGYTDYADSVKGRFTISRDNAKNTVYLQMNSLKPEDTAVYYCAAHRTIATIPEKYEYEYWGQGTQVTVSS",
    "reported measurement": 0.000223
  },
  {
    "binder": "AS06618 sdAb (VHH, His6-tagged llama sdAb) VHH: EVQLVESGGRLVRAGDSLRLSCAASGRTFLSYAVGWFRQAPGTEREFVAGIRWSGGYTDYAEAVKGRFTISRDNAKNTVYLQMNSLKPEDTAVYYCAAHRTIATIPEKYEYEYWGQGTQVTVSS",
    "reported measurement": 0.000245
  },
  {
    "binder": "AS11948 sdAb (VHH, His6-tagged llama sdAb) VHH: EVQLVESGGGLVQAGDSLRLSCVASGRTFVTYGMGWFRQAPGKEREFVAAINWSGSMTSYGDSVKGRFAISRDNAKNTVYLQMNSLKPEDTAVYYCAAALGAVVYTTREPYTYWGRGTQVTVSS",
    "reported measurement": 0.000394
  },
  {
    "binder": "AS06791 sdAb (VHH, His6-tagged llama sdAb) VHH: QVQLVESGGGLVQAGGSLRLSCAASGRTFITYAIGWFRQAPGKEREFVTAINWSGSMTSYADSVKGRFTISRDNAKNTVYLQINGLKSEDTAVYYCAAHRGAIAPMTQSVYDYWGQGTQVTVSS",
    "reported measurement": 0.000239
  },
  {
    "binder": "AS06686 sdAb (VHH, His6-tagged llama sdAb) VHH: AVQLVESGGGLVQAGDSLRLACAASGRTFLTYALGWFRQAPGKEREFVAGVSWSGSSTKYADSVKGRFTISRDNAKNTVYMQMNSLKPEDTAVYYCAAQISAIVPISAHEYQYWGQGTQVTVSS",
    "reported measurement": 0.000965
  },
  {
    "binder": "AS06682 sdAb (VHH, His6-tagged llama sdAb) VHH: AVQLVESGGGLVQAGDSLRLSCTASGRTFLSYAVGWFRQAPGTEREFVAGIRWSGEHTDYAASVKGRFTISRDNAKNTVYLQMNSLKPEDTAVYYCAAHTTIATIPKKYEYEYWGQGTQVTVSS",
    "reported measurement": 0.000342
  }
]
